- System Name: T1, human PAI-1 captured on immobilized human vitronectin (human, UniProt P04004 20-478)
- T1 construct: non-covalent complex formed on the chip or plate; also called PAI-1/Vn complex; Vn captured hPAI-1
- T1 sequence (chain, as listed by the source limits assumed, chain 1 of 2): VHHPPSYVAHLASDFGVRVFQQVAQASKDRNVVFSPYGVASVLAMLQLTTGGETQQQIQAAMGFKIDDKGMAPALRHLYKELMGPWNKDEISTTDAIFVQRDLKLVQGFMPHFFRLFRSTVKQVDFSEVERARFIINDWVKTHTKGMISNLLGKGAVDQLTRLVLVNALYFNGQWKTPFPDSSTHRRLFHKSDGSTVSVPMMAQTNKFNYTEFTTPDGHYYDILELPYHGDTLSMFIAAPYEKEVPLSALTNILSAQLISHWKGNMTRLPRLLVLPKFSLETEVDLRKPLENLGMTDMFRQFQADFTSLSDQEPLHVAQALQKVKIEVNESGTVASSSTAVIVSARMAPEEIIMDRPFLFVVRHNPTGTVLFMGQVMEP
- T1 sequence (P04004 20-478 limits assumed, chain 2 of 2): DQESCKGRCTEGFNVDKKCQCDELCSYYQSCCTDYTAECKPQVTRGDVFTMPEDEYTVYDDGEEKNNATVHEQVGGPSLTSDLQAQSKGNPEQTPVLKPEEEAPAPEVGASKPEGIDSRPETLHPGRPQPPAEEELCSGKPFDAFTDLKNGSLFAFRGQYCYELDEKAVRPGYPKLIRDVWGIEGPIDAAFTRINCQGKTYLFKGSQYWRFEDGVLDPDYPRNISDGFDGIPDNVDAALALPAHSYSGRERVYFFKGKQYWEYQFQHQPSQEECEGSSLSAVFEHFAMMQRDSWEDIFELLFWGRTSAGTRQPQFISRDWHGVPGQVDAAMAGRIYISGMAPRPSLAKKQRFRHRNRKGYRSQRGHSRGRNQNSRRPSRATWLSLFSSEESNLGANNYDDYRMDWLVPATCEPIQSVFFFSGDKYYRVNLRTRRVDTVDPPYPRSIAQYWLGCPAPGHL
- Method Summary: Biacore, hPAI-1 on vitronectin chip, 1:1 model

Binder	koff [s⁻¹]
A44-hv12 (antibody, V domains shown, humanized A44, HEK293; constant regions as for A44-hv1; also called LC4 x HC3; variant 12) VH: QMTLKESGPTLVKPTQTLSLTCSVSGDSMTNGYWNWIRQFPGKALEYMGYITYSGSTYYNPSLKGRITITRDTSKNQYYLTLSSVTTVDTATYYCARWHYGSPYYFDYWGQGTTLTVSS VL: DIKMTQSPSSLSASVGDRVTITCKASQDINSYLSWLQQKPGKSPKTLIYRAQRSVEGVPSRFSGSGSGQDYSLTISSLQPEDLATYYCLQYDEFPPTFGGGTKLEIK	8.14e-05
A44-hv1 (antibody, V domains shown, humanized A44, HEK293; also called LC1a x HC1a; variant 1) VH: EMTLKESGPTLVKPTQTLSLTCSVTGDSMTNGYWNWIRKFPGKALEYMGYITYSGSTYYNPSLKGRISITRNTSKNQYYLTLSSVTTVDTATYYCARWHYGSPYYFDYWGQGTTLTVSS VL: DIKMTQSPSSLSASVGDRVTITCKASQDINSYLSWLQQKPGKSPKTLIYRANRSVDGVPSRFSGSGSGQDYSLTISSLQPEDLGIYYCLQYDEFPPTFGGGTKLEIK	0.000555
A44-hv14 (antibody, V domains shown, humanized A44, HEK293; constant regions as for A44-hv1; also called LC4 x HC5b; variant 14) VH: QMQLQESGPGLVKPSETLSLTCTVSGDSMTNGYWNWIRQPPGKGLEYMGYITYSGSTYYNPSLKSRITISRDTSKNQYSLKLSSVTAADTAVYYCARWHYGSPYYFDYWGQGTLVTVSS VL: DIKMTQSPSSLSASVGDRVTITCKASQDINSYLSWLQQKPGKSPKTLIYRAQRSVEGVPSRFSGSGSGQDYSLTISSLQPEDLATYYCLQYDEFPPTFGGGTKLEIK	3.95e-05
